Values were extracted from patent US20240034774A1.

target: gp120 CAAN (HIV (CAAN)); test: single-point ELISA at EC50 conc. of A-1
Documented ELISA A450 across a set of binders
endpoint label: ELISA A450 (A450)

binder	endpoint label	quantitative readout
1.33.35-1 (antibody, human IgG1, kappa, V domains shown) VH: QVQLVQSGAEVKKPGASVRVSCKASGYNIRDYFIHWWRQAPGQGLQWVGWINPKTGQPNNPRQFQGRVTLTRHASWDFDTFSFYMDLKALRSDDTATYFCARQRSDYWDFDVWGSGTQVTVSS VL: DIQMTQSPSSLSASVGDRVTITCQANGYLNWYQQKPGKAPKLLIYDGSNLETGVPSRFSGSRWGQEYTLTISSLQPEDIATYFCQVYEFVGPGTNLDIKR	ELISA A450	0.81
1.32.35-1 (antibody, human IgG1, kappa, V domains shown) VH: QVQLVQSGAEVTKPGASVRVSCEASGYNIRDYFIHWWRQAPGQGLQWVGWINPKTGQPNNPRQFQGRVSLTRHASWDFDTFSFYMDLKALRSDDTAVYFCARQRTDYWDFDVWGSGTQVTVSS VL: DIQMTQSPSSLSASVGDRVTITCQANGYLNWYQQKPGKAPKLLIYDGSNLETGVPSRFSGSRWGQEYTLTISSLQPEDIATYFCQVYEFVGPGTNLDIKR	ELISA A450	0.59
1.31.35-1 (antibody, human IgG1, kappa, V domains shown) VH: QVQLVQSGAEVTKPGASVRVSCEASGYNIRDYFIHWWRQAPGQGLQWVGWINPKTGQPNNPRQFQGRVSLTRHASWDFDTFSFYMDLKALRSDDTATYFCARQRSDYWDFDVWGSGTQVTVSS VL: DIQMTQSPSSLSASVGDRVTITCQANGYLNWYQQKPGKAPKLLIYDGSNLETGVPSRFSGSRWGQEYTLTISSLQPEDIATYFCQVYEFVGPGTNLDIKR	ELISA A450	0.77
1.1.35-1 (antibody, human IgG1, kappa, V domains shown) VH: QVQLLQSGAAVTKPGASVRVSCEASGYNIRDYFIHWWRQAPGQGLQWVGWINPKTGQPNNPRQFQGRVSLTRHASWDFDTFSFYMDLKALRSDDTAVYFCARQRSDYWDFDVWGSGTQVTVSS VL: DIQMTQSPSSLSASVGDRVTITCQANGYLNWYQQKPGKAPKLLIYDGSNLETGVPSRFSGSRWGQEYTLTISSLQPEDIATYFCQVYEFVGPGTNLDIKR	ELISA A450	0.75
